# measured.target: RSV fusion glycoprotein (RSV F) on RSV-A2 virus (respiratory syncytial virus, UniProt P03420 26-574)
# experiment.notes: cell-based or functional assay
Reported Neutralization IC50 (RSV subtype A) is given for each of the following binders.
Reply numerically in mg/L, unit not repeated.

Here's what some known entries look like.
So, ADI-41424 (antibody, V domains shown) VH: QVQLVQSGAEVREPGASVKVSCKPSGYTFANYGISWVRQAPGQGLEWMAWISAYNGNTNYAPKVQGRVSVTTDSSTGIGYMELRSLRSDDTAVYYCVRDTPAIAGAATLDFWGQGTLVTVSS VL: DIVLTQSPLSLAVTPGQSASISCRSRQSHVFSDGNTYVSWFQQRPGRSPRRLIYRVSYRDSGVPDRFSGSGSGSDFTLRISRVEAEDVGVYYCMQGTHWPRTFGQGTKLEIK ? Its Neutralization IC50 (RSV subtype A) was 0.28

The reported value for ADI-41439 (antibody, V domains shown) VH: QVQLVQSGTEVKNPGASVKVSCKASGYTFSNYGITWVRQAPGQGLEWMAWISAYNGNILYAQNVQGRVTMTTDTSTSTGYMELRSLRSDDTAVYYCARDAPAGTLTLLDYWGQGTLVTVSS VL: DIVMTQTPLSLPVTLGQPASISCRPSQSLVYSDGNTYLNWFQQRPGQSPRRLIYKVSNRDSGVPDRFSGSGSGTDFTLRISRVEAEDVGVYYCMQGSHWPYAFGQGTKVEIK in terms of Neutralization IC50 (RSV subtype A) is 0.34

New cases:
Form field Neutralization IC50 (RSV subtype A), entry ADI-41380 (antibody, V domains shown) VH: QVQLVQSGAEVKKPGESLKISCKGSGYSFTSYWIGWVRQMPGKGLEWMGIIYPGDSDTRYSPSFQGQVTISADKSISTAYLQWSSLKASDTAMYYCASSRAYYDILTGYYVASAETQTKAAFDIWGQGTTVTVSS VL: DIQVTQSPSSLSASVGDRVTITCQASQDISNYLNWYQQKPGKAPKLLIYDASNLETGVPSRFSGSGSGTDFSFTISSLQPEDIATYYCQQYDNLITFGQGTKVEIK : 0.0549

Provenance of the data: patent US20260258115A1
